These measurements were taken from the supplement of paper PMC10307832.

system: LCLC-103H; test: relative viability (nuclei count vs DMSO), 5 days (fraction); higher = more cells survive; conditions: first compound 0.1581 µM
measurement.type: relative viability

{"compound": "COc1cc2nccc(Oc3ccc(NC(=O)Nc4cc(C)on4)c(Cl)c3)c2cc1OC [Tivozanib] + O=C(CCCCCCC(=O)Nc1ccccc1)NO [Vorinostat] (partner 1 µM)", "measurement.type": "relative viability", "experimental.value": 0.824}
{"compound": "Nc1ccn([C@@H]2O[C@H](CO)[C@@H](O)[C@@H]2O)c(=O)n1 [Cytarabine] + Nc1ncn([C@H]2C[C@H](O)[C@@H](CO)O2)c(=O)n1 [Decitabine] (partner 2 µM)", "measurement.type": "relative viability", "experimental.value": 0.751}
{"compound": "COc1cc2nccc(Oc3ccc(NC(=O)Nc4cc(C)on4)c(Cl)c3)c2cc1OC [Tivozanib] + CS(=O)(=O)N1CCN(Cc2cc3nc(-c4cccc5[nH]ncc45)nc(N4CCOCC4)c3s2)CC1 [Pictilisib] (partner 1 µM)", "measurement.type": "relative viability", "experimental.value": 0.602}
